# subject.of.test: Ba/F3 cell line expressing TYK2 (Homo sapiens, UniProt P29597, cells depend on it, form not given)
# experimental.protocol: In vitro cellular inhibition assay (Ba/F3 cell proliferation, CellTiter-Glo)
# Format: cell-based
# condition.info: read-out: IC50 (the source's name)
In this section, each of the compounds is paired with its reported GI50.

For record [2H]C([2H])([2H])NC(=O)c1cnc(NC(=O)C2CC2)cc1Nc1cccc(C(=O)Nc2cccc(C#N)c2)c1OC the listed GI50 is 5 to 10 nM

According to the records, this compound [2H]C([2H])([2H])NC(=O)c1cnc(NC(=O)C2CC2)cc1Nc1cccc(C(=O)Nc2ncc(C)cn2)c1OC displays GI50 of 5 to 10 nM
